Parameter Δ absorbance maxima: see the listing below.
# tested_target: CYP168A1 (Pseudomonas aeruginosa, UniProt Q9I107)
# assay_procedure: Ligand Kd determination by optical difference spectroscopy
# Assay type: binding
# condition_notes: 1 μM CYP168A1; ND = no spectral shift detected
Give the number first and the unit second.

Solved cases below.
CCCCCCCCCCCC(=O)O [Lauric acid] = 0.013 AU
CCCCCCCCCC(=O)O [Decanoic acid] = 0.016 AU
CCCCCCCCCCCCCCCC(=O)O [Palmitic acid] = 0.064 AU

Query: Δ absorbance maxima; subject: CCCCCCCC/C=C\CCCCCCCC(=O)O [Oleic acid]
0.099 AU

// lookup Δ absorbance maxima for Clc1ccc(COC(Cn2ccnc2)c2ccc(Cl)cc2Cl)cc1 (stereo not shown) [Econazole]
0.026 AU

Entry under review: Clc1ccc(COC(Cn2ccnc2)c2ccc(Cl)cc2Cl)c(Cl)c1 (stereo not shown) [Miconazole] . Reported Δ absorbance maxima?
0.036 AU

Give its Δ absorbance maxima value. Item: CCCCCCCCCCCCCC(=O)O [Myristic acid]
0.048 AU

Give its Δ absorbance maxima value. Item: CCCCC/C=C\C/C=C\C/C=C\C/C=C\CCCC(=O)O [Arachidonic acid]
0.058 AU

Bench note: what Δ absorbance maxima did CCCCCCCCCCCCCCCCCC(=O)O [Stearic acid] show?
0.078 AU

May I ask what Δ absorbance maxima has been recorded for Clc1ccccc1C(c1ccccc1)(c1ccccc1)n1ccnc1 [Clotrimazole] ?
0.053 AU

###

# tested_target: CYP168A1 (Pseudomonas aeruginosa, UniProt Q9I107)
# assay_procedure: Ligand Kd determination by optical difference spectroscopy
# Format: binding
Param label: returns T when Kd < 1000 nM, returns F otherwise, including exact equality.

The examples below pair each entry with its known result.
CCCCCCCCCCCCCC(=O)O = T
CCCCCCCCCC(=O)O = F
Clc1ccc(COC(Cn2ccnc2)c2ccc(Cl)cc2Cl)cc1 (centres unmarked) = F
CCCCC/C=C\C/C=C\C/C=C\C/C=C\CCCC(=O)O = T

Please turn your attention to the following entry.
Input `Clc1ccccc1C(c1ccccc1)(c1ccccc1)n1ccnc1` ; condition: Kd strictly below 1000 nM. Does it hold?
F

###

# tested_target: CYP168A1 (Pseudomonas aeruginosa, UniProt Q9I107)
# assay_procedure: Ligand Kd determination by optical difference spectroscopy
# Format: binding
readout: Kd (nM)
Just the number in nM, nothing appended.

# count of solved cases: 3
Clc1ccc(COC(Cn2ccnc2)c2ccc(Cl)cc2Cl)c(Cl)c1 (stereo not shown) [Miconazole] = 880
CCCCCCCC/C=C\CCCCCCCC(=O)O [Oleic acid] = 370
CCCCCCCCCCCCCCCCCC(=O)O [Stearic acid] = 330

What measured Kd goes with CCCCCCCCCCCCCCCC(=O)O [Palmitic acid] ?
210

###

# tested_target: CYP168A1 (Pseudomonas aeruginosa, UniProt Q9I107)
# Sequence (Q9I107 1-444): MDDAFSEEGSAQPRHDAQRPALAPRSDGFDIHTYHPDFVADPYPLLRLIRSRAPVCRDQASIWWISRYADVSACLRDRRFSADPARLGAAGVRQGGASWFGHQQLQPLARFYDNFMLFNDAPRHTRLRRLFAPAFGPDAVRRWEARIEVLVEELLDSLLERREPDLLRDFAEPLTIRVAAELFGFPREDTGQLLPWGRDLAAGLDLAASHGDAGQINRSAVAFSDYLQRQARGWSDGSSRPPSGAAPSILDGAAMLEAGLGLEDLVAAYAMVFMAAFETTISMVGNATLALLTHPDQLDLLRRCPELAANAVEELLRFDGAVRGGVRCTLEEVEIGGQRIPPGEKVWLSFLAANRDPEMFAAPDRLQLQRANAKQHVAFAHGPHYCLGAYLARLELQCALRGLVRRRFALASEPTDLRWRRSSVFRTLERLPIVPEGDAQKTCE
# assay_procedure: biochemical
# condition_notes: Ki ± SE, substrate inhibition constant, 18-HETE formation
readout: pKi
The quantity pKi is defined as the negative base-10 logarithm of the molar concentration.

Recorded pKi of `CCCCC/C=C\C/C=C\C/C=C\C/C=C\CCCC(=O)O` , please.
4.80
